- targetOrTestSystem: benzodiazepine receptor
- assayName: Benzodiazepine Receptor Binding Assay
- studyConditions: read-out: BZP-receptor Binding IC50; [3H]-diazepam 1.5 nM; rat brain crude synaptosome membrane; 0° C., 20 min
pIC50: −log10 of the molar value.
quantityName: pIC50

| molecule | targetOrTestSystem | pIC50 |
| --- | --- | --- |
| CCc1noc(-c2cc3c(-c4cccc(OC)c4)nccc3[nH]c2=O)n1 [Example 209] | benzodiazepine receptor | 8.89 |
| CCc1nc(-c2cc3c(-c4cccc5ccccc45)nccc3[nH]c2=O)no1 [Example 100] | benzodiazepine receptor | 8.88 |
| O=c1[nH]c2ccnc(-c3cccs3)c2cc1-c1noc(C2CC2)n1 [Example 122] | benzodiazepine receptor | 9.06 |
